- System: cloned human or rodent CNS receptors, channels, and transporters (PDSP panel)
- Experiment Summary: PDSP GPCR panel primary binding assays at 10 μM
- Measurement Setup: Receptor Alpha2C; primary assay, 10 μM
Metric: Inhibition 2 (%)
The answer is to be given in %; state only the numeric part.

Previously resolved entries follow.
>>> print(df.to_string())
                                   compound                                 tested_on  uom  reported
0  c1cn2cc(-c3ccc4cn[nH]c4c3)nc(Nc3ccc(N4CCOCC4)cc3)c2n1 [UNC10302678A, Entospletinib (GS-9973)]  cloned human or rodent CNS receptors, channels, and transporters (PDSP panel)    %      7.15
1  O=c1oc2ccccc2cc1-c1cn2cc(Cc3ccc(F)cc3)sc2n1 [UNC10302680A, iMDK]  cloned human or rodent CNS receptors, channels, and transporters (PDSP panel)    %      3.75
2  CCCCNc1ncc2c(-c3ccc(CN4CCN(C)CC4)cc3)cn([C@H]3CC[C@H](O)CC3)c2n1 [UNC2025C, UNC2025]  cloned human or rodent CNS receptors, channels, and transporters (PDSP panel)    %     38.52

Let us examine a further case.
Quick check: Inhibition 2 of Cl.NC(=O)c1cnc(N[C@@H]2CCCC[C@@H]2N)nc1Nc1cccc(-n2nccn2)c1 [UNC10302682A, P505-15 (PRT06207 HCl)] ?
17.82

* * *

- Tested On: cloned human or rodent CNS receptors, channels, and transporters (PDSP panel) (Homo sapiens)
- Construct: expressed in transfected cells
- Experiment Summary: PDSP GPCR panel primary binding assays at 10 μM
- Measurement Setup: 5-HT6; primary assay, mean inhibition
Items are presented alongside their recorded Mean %.
The answer is to be given in %; state only the numeric part.

Previously resolved entries follow.
                                   compound  metric  reported
0  CC(=O)N1CCC(NC(=O)NC23CC4CC(CC(C4)C2)C3)CC1 [UNC10302683A, AR9281]  Mean %      9.33
1  CNc1nc(C)nc(N[C@H]2CCC[C@@H](C(=O)NCc3ccc(C#N)cc3C(F)(F)F)C2)n1 [UNC10302679A, GSK2256294A]  Mean %     -6.87
2  O=C(NC1CC1)C(=O)C(Cc1ccccc1)NC(=O)[C@H]1CCC(=O)N1Cc1ccccc1 (stereo partly shown) [UNC10302676A, ABT-957 (Alicapistat)]  Mean %     -7.55

Let us examine a further case.
Quick check: Mean % of CCC(=O)N1CCC(NC(=O)Nc2ccc(OC(F)(F)F)cc2)CC1 [UNC10302681A, TPPU] ?
-0.91

* * *

Items are presented alongside their recorded Mean %.
- Tested On: cloned human or rodent CNS receptors, channels, and transporters (PDSP panel) (Homo sapiens, UniProt P08173)
- Construct: expressed in transfected cells
- Sequence (P08173 whole entry): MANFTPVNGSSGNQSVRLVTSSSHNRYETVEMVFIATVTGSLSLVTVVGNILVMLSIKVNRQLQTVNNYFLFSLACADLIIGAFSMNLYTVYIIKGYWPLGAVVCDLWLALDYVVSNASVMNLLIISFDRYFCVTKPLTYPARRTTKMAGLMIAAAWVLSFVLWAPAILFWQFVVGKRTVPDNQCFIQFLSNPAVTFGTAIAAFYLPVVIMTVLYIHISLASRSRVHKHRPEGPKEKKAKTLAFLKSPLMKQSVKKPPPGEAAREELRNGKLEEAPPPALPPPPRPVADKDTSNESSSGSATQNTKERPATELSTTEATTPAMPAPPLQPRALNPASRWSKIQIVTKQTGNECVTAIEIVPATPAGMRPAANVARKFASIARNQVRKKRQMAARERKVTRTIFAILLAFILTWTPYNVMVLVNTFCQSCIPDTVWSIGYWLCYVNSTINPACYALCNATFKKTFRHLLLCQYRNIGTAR
- Experiment Summary: PDSP GPCR panel primary binding assays at 10 μM
- Measurement Setup: Receptor M4; primary assay, 10 μM; mean of Inhibition 1-4
- Experimental: GPCR panel: Screening against the receptors within the PDSP panel offers an assessment of off-target pharmacological activity at cloned human or rodent CNS receptors, channels, and transporters that could confound CNS-related phenotypes. A total of 46–47 primary binding assays were run in quadruplicate on these compounds at 10 μM, with follow-up secondary binding assays in 11-point dose-response in triplicate for select compounds versus select receptors. […]
The answer is to be given in %; state only the numeric part.

Previously resolved entries follow.
                                   molecule  metric  reported
0  CCCCNc1ncc2c(-c3ccc(CN4CCN(C)CC4)cc3)cn([C@H]3CC[C@H](O)CC3)c2n1 [UNC2025C, UNC2025]  Mean %      6.78
1  c1cn2cc(-c3ccc4cn[nH]c4c3)nc(Nc3ccc(N4CCOCC4)cc3)c2n1 [UNC10302678A, Entospletinib (GS-9973)]  Mean %     16.54
2  O=c1oc2ccccc2cc1-c1cn2cc(Cc3ccc(F)cc3)sc2n1 [UNC10302680A, iMDK]  Mean %     14.36

Let us examine a further case.
Quick check: Mean % of Cl.NC(=O)c1cnc(N[C@@H]2CCCC[C@@H]2N)nc1Nc1cccc(-n2nccn2)c1 [UNC10302682A, P505-15 (PRT06207 HCl)] ?
17.75
